Biological target: UniProtKB O60725
Experiment: Inhibition of human isoprenylcysteine carboxyl methyltransferase using [14C]SAM and N-acetyl-S-farnesyl-L-cysteine as substrate at 10 uM after 30 mins by vapor diffusion assay
ENDPOINT: inhibition (%)

> print(dat)
                             smiles.input  value.measured
1  COC(=O)CSCC/C=C(\C)CC/C=C(\C)CCC=C(C)C              12
2      CC(C)=CCC/C(C)=C/CC/C(C)=C/CSC(C)C               0
3  CC(=O)OCCSC/C=C(\C)CC/C=C(\C)CCC=C(C)C              27

* * *

Target: Protein-S-isoprenylcysteine O-methyltransferase (Homo sapiens)
Assay: Inhibition of human isoprenylcysteine carboxyl methyltransferase using [14C]SAM and N-acetyl-S-farnesyl-L-cysteine as substrate after 30 mins by vapor diffusion assay
ENDPOINT: IC50 (µM)

> print(dat)
                       smiles.input  endpoint  value.units  value.measured
1  CC(C)=CCC/C(C)=C/CC/C(C)=C/CSCCO      IC50           µM            0.86

* * *

Target: Protein-S-isoprenylcysteine O-methyltransferase (Homo sapiens)
Assay: Inhibition of human isoprenylcysteine carboxyl methyltransferase using [14C]SAM and N-acetyl-S-farnesyl-L-cysteine as substrate at 10 uM after 30 mins by vapor diffusion assay
So basically every entry gets a class from its inhibition, ranges being low-valued (below 9%), mid-valued (9% to below 40%), high-valued (40% or more)

> print(dat)
                                   compound  assigned.category
1  CC(C)=CCC/C(C)=C/CC/C(C)=C/CSCC(O)CO (configuration not stated)        high-valued
2               COC(=O)CSC/C=C(\C)CCC=C(C)C         low-valued
3                CC(C)=CCC/C(C)=C/CSCC(=O)O         low-valued
4          CC(C)=CCC/C(C)=C/CC/C(C)=C/CSCCN         low-valued
5  CCOP(=O)(CCSC/C=C(\C)CC/C=C(\C)CCC=C(C)C)OCC         mid-valued
6         CC(C)=CCC/C(C)=C/CC/C(C)=C/CSCCCO         mid-valued
7     CC(C)=CCC/C(C)=C/CC/C(C)=C/CSCCC(=O)O         mid-valued
8          CC(C)=CCC/C(C)=C/CC/C(C)=C/CSCCO        high-valued
9  CCOC(=O)NCCSC/C=C(\C)CC/C=C(\C)CCC=C(C)C         mid-valued

* * *

Target: Protein-S-isoprenylcysteine O-methyltransferase (Homo sapiens, UniProt O60725)
Sequence (O60725 whole entry, the tested form may be a part): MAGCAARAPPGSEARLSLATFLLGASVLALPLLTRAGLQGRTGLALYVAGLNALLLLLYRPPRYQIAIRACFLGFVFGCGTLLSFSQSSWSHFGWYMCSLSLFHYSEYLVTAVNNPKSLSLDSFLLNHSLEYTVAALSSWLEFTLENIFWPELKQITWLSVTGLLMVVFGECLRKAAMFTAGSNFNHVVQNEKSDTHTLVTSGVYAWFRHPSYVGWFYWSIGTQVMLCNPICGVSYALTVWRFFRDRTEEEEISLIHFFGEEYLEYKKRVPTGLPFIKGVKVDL
Test: Inhibition of human isoprenylcysteine carboxyl methyltransferase using [14C]SAM and N-acetyl-S-farnesyl-L-cysteine as substrate at 10 uM after 30 mins by vapor diffusion assay
Ranges used to classify inhibition: bucket A (below 3%), bucket B (3% to below 20%), bucket C (20% or more)

> print(dat)
                                smiles.input  assigned.category
 1        CC(C)=CCC/C(C)=C/CC/C(C)=C/CSCCCBr           bucket B
 2     COC(=O)CSC/C=C(\C)CC/C=C(\C)CCC=C(C)C           bucket C
 3                    CC(C)=CCC/C(C)=C/CSCCO           bucket A
 4         COCCSC/C=C(\C)CC/C=C(\C)CCC=C(C)C           bucket A
 5  COC(=O)CSC/C=C(\C)CC/C=C(\C)CC/C=C(\C)CCC=C(C)C           bucket B
 6          CC(C)=CCC/C(C)=C/CC/C(C)=C/CSCCS           bucket A
 7  COC(=O)C(F)(F)SC/C=C(\C)CC/C=C(\C)CCC=C(C)C           bucket C
 8    CC(C)=CCC/C(C)=C/CC/C(C)=C/CSC(C)(C)CO           bucket C
 9  CC(C)=CCC/C(C)=C/CC/C(C)=C/CSCCN=[N+]=[N-]           bucket B
10         CC(C)=CCC/C(C)=C/CC/C(C)=C/CSCC=O           bucket B
11    CC(C)=CCC/C(C)=C/CC/C(C)=C/CSCCC(=O)NO           bucket C
